Tested on: Noggin (protein binding on small-molecule microarray)
Assay: Noggin binders on small-molecule microarray, primary screen, biochemical, 635/667 nm fluorescence (AID 1095);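 note: score merges 667 nm feature fluorescence with signal to noise over triplicate slides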
Details: 635 nm fluorescence, higher = more signal
We use 1 as the dividing line for composite z-score: on or above the line is yes (1), below is no (0).

Field: example entries. Status: answers known.
COc1ccc(C#Cc2ccc3c(c2)[C@]2(C(=O)N3)[C@H](c3ccc(OCCO)cc3)N3[C@H](c4ccccc4)[C@H](c4ccccc4)OC(=O)[C@H]3[C@@H]2C(=O)O)cc1: yes (1)
CO[C@H]1O[C@H](CO)[C@@H](OC(=O)Nc2ccc(C(F)(F)F)cc2)[C@H](OC(=O)Nc2ccccc2-c2ccccc2)[C@@H]1OC(=O)Nc1ccccc1-c1ccccc1: yes (1)
[N-]=[N+]=NCc1ccccc1C[C@]1(C(=O)NCc2ccccc2)N=C(c2ccc(OCCCO)cc2)O[C@H]1c1ccccc1CN=[N+]=[N-]: no (0)
CCOC(=O)C[C@H]1[C@H](OC(=O)c2cc3ccccc3oc2=O)[C@@H](NC(=O)C2CCCCC2)c2cc(OCCCO)ccc2N1C(=O)Cc1ccc(OC)cc1: no (0)

Asked: Is composite z-score at least 1? Consider CCCCN1CC=CC23O[C@@H]4/C=C\CCC(C)OC(=O)C4[C@H]2C(=O)N(C(C)CO)[C@@H]3C1=O (some centres not stated)
Given back: no (0)

Asked: Is composite z-score at least 1? Consider CN1C(=O)[C@]2(CCC(=O)OC(C)(C)C)N=C(c3ccc(OCCCO)cc3)O[C@@H]2c2ccccc21
Given back: yes (1)

Asked: Is composite z-score at least 1? Consider COC(=O)C1=CC(CCCO)=CC(C2CC2)N(Cc2cccc(OC(F)(F)F)c2)C=C1C(=O)OC (configuration not stated)
Given back: no (0)

---

Molecular target: Dickkopf-related protein 1 (Homo sapiens)
Test: DKK1 binders on small-molecule microarrays, primary screen, biochemical, small-molecule microarray, 635 nm fluorescence scan (AID 1106);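 note: score merges emission near 667 nm with signal to noise over three replicate slides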
Settings: DKK1 binding, higher = more signal
We use 0.05 as the dividing line for composite z-score: on or above the line is yes, below is no.

Field: example entries. Status: answers known.
CCOC(=O)C[C@H]1[C@H](OC(=O)c2ccc(C(=O)c3ccccc3)cc2)[C@@H](NC(=O)c2ccc3ccccc3c2)c2cc(OCCCO)ccc2N1C(=O)c1ccc2ccccc2n1: yes
CCCCN1CC=CC23O[C@@H]4/C=C\CCC(C)OC(=O)C4[C@H]2C(=O)N(C(C)CO)[C@@H]3C1=O (stereo partly specified): no
O=C1C2C=CC(C(O)c3cccs3)N(Nc3ccccc3)C2C(=O)N1c1ccccc1 (stereo unspecified): no
COCCOC(=O)N1C(=O)[C@@]2(c3cc(C#Cc4ccc(OC)cc4)ccc31)[C@H](C(=O)Nc1nc3ccccc3s1)[C@H]1C(=O)O[C@H](c3ccccc3)[C@H](c3ccccc3)N1[C@@H]2c1ccccc1OCCO: yes

Turning to the following molecule.
Asked: Is composite z-score at least 0.05? Consider COC(=O)C1=CC(CCCO)=CC(c2ccc(CN3CCCC3)cc2)N(Cc2sc3ccccc3c2Cl)C=C1C(=O)OC (stereo unspecified)
Given back: yes

---

Test system: Human papillomavirus type 1a protein E7 (residues 44-93)
Experiment: HPV1a E7 fragment binders on microarrays, primary screen, biochemical, small-molecule microarray, residues 44-93, 635 nm fluorescence (AID 1108);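 note: E7 fragment applied at 1 µg/mL in TBST for 1 h at 4 C; score combines spot fluorescence with its signal to noise ratio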
Details: small-molecule microarray binding, fluorescence 635 nm; higher = more signal
Kindly state composite z-score for each of the entries shown.
Answers are plain numbers.

Known composite z-score results, listed for orientation:
CCCC[C@@H]1C[C@H]1[C@@H](NC(=O)Cc1ccccc1)c1ccc(Cl)cc1: 1.37
COc1cc2c(cc1O)C(c1ccc(CN3CCCC3)cc1)N(Cc1ccc([N+](=O)[O-])o1)CC2 (configuration not stated): -1.17

Need composite z-score for each of these molecules.
1. COC(=O)C1=CC(CCCO)=CC(c2ccc(CN3CCCC3)cc2)N(Cc2sc3ccccc3c2Cl)C=C1C(=O)OC (configuration not stated)
2. C=CCN1C(=O)[C@]2(O[C@H](CCn3cc([C@H](O)c4ccccc4)nn3)[C@@H]([Si](C)(C)c3ccc(OC)cc3)[C@@H]2C)c2cc(N3C(=O)c4cccc5cccc3c45)ccc21
3. CO[C@H]1O[C@H](CO)[C@@H](OC(=O)Nc2ccccc2)[C@@H]2OC(=O)[C@H](Cc3ccccc3)C/C=C/C[C@@H](Cc3ccccc3)C(=O)O[C@@H]12
4. CC(C)(C)OC(=O)CC[C@]1(C(N)=O)N=C(c2ccc(OCCCO)cc2)O[C@H]1c1ccccc1CN=[N+]=[N-]

Given back:
1. 1.34
2. 0.87
3. 1.04
4. 0.6

Input CCCCC(O)C1C=CC2C(=O)N(C)C(=O)C2N1Nc1ccccc1 (configuration not stated) . Output composite z-score: 1.18

FYI, the data here is from PubChem BioAssay.
